Exercise: for every item that follows, state its recorded pIC50.
Target: Phosphatidylinositol 4,5-bisphosphate 3-kinase catalytic subunit beta isoform (Homo sapiens)
Sequence (P42338 whole entry, canonical isoform): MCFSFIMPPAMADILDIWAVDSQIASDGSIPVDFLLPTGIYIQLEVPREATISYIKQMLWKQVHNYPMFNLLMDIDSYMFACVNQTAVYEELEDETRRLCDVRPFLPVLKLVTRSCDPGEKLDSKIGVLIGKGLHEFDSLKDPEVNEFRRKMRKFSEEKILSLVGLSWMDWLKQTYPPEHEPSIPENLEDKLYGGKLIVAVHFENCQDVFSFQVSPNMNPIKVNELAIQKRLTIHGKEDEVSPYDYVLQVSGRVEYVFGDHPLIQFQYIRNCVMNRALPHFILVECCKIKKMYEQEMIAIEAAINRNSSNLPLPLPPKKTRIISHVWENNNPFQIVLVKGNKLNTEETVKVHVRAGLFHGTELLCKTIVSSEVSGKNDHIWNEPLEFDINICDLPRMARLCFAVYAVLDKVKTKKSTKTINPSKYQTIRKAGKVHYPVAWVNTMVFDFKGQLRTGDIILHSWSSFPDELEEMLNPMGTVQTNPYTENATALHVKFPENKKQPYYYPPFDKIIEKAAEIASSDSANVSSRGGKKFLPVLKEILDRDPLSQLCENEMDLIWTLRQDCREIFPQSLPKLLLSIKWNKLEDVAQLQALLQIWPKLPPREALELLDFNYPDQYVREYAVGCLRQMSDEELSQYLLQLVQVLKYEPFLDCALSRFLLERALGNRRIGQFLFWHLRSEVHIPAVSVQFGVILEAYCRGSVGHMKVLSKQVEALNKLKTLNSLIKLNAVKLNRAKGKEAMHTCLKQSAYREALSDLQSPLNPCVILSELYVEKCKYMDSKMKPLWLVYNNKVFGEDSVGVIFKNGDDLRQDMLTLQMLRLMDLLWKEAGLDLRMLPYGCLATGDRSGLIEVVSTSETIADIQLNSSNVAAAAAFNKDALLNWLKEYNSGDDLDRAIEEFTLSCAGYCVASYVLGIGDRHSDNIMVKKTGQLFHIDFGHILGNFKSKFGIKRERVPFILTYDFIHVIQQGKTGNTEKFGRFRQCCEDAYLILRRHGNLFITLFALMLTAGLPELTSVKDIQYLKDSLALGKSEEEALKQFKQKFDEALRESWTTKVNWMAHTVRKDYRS
Assay: Inhibition of PI3Kbeta (unknown origin) using PIP2/PS as substrate after 1 hr by luciferase-based luminescence assay
Give bare numbers, as −log10 of the molar value.

COc1ncc(-c2cc3c(-c4ccncc4)ncnc3s2)cc1NS(=O)(=O)c1ccc(F)cc1F = 7.65

So what does the record say about pIC50 for O=S(=O)(Nc1cc(-c2cc3c(-c4ccncc4)ncnc3s2)cnc1Cl)c1ccc(F)cc1F ?
8.44

---

Target: Phosphatidylinositol 4,5-bisphosphate 3-kinase catalytic subunit delta isoform (Homo sapiens, UniProt O00329)
Sequence (O00329 whole entry, canonical isoform): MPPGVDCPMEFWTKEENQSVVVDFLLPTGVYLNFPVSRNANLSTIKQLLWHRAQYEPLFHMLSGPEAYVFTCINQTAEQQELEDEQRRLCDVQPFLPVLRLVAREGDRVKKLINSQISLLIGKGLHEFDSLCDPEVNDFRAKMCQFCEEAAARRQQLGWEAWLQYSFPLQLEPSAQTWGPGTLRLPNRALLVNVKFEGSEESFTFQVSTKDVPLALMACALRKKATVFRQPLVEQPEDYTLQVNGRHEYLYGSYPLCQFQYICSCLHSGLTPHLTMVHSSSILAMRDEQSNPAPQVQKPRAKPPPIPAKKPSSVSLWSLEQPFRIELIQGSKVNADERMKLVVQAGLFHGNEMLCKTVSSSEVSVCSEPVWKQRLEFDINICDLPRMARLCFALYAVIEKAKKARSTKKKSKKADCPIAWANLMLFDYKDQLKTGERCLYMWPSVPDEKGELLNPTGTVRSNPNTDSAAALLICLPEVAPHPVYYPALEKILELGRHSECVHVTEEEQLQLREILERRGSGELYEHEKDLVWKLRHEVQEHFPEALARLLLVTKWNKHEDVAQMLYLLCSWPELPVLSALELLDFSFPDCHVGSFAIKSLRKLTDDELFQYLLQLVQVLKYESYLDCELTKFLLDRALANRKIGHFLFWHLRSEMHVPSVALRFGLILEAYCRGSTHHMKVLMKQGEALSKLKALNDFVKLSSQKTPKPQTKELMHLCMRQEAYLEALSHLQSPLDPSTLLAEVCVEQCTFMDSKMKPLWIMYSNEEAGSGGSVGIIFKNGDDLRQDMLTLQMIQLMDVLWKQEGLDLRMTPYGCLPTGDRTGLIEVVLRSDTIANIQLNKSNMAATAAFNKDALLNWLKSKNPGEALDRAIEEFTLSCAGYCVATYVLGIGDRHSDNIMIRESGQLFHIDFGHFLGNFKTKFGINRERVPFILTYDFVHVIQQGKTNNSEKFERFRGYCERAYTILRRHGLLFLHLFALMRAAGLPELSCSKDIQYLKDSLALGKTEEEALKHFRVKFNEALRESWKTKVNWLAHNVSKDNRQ
Assay: Inhibition of PI3Kdelta (unknown origin) using PIP2/PS as substrate after 1 hr by luciferase-based luminescence assay
Value type: IC50 (nM)
Numbers only, in nM.

COc1ncc(-c2cc3c(-c4ccncc4)ncnc3s2)cc1NS(=O)(=O)c1ccc(F)cc1F = 13.3

# context switch: different compound, same IC50
So what does the record say about IC50 for O=S(=O)(Nc1cc(-c2cc3c(-c4ccncc4)ncnc3s2)cnc1Cl)c1ccc(F)cc1F ?
3.1

---

Exercise: for every item that follows, state its recorded IC50.
Biological target: Phosphatidylinositol 4,5-bisphosphate 3-kinase catalytic subunit alpha isoform (Homo sapiens, UniProt P42336)
Sequence (P42336 whole entry, canonical isoform): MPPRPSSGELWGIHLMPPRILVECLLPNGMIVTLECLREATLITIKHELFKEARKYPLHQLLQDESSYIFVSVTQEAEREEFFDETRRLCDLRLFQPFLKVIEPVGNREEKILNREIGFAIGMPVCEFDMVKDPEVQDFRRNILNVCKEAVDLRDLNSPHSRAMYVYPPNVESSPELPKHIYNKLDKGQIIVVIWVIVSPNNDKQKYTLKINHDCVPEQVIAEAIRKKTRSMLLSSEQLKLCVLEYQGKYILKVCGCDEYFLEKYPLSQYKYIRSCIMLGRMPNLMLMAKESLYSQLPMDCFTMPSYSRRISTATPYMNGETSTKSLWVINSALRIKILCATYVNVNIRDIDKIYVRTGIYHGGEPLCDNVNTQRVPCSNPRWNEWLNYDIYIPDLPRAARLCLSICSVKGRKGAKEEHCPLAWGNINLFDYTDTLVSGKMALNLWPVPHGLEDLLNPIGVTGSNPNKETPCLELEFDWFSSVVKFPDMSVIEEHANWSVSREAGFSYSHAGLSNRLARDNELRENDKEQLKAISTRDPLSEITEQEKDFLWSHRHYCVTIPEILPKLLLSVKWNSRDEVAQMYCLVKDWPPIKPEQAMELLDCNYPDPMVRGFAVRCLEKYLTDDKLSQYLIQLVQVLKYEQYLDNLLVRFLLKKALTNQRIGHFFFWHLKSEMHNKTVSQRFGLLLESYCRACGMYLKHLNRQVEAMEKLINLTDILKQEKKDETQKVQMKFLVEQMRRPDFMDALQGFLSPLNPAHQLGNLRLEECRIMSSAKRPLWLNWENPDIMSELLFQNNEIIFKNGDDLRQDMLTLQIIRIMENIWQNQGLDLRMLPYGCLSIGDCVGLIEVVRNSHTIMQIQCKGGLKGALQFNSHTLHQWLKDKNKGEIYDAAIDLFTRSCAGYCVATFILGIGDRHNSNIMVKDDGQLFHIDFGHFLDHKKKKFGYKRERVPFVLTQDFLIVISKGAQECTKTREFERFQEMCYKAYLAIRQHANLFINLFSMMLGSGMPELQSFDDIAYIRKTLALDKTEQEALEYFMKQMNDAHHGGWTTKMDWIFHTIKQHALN
Assay: Inhibition of PI3Kalpha (unknown origin) using PIP2/PS as substrate after 1 hr by luciferase-based luminescence assay
Numbers only, in nM.

For orientation, consider the following solved cases.
COc1ccc(-c2cc3c(-c4ccncc4)ncnc3s2)cn1 = 1230
COc1ncc(-c2cc3c(-c4ccncc4)ncnc3s2)cc1NS(=O)(=O)c1ccc(Cl)s1 = 1.3

Kindly give each listed record's IC50.
1. COc1ncc(-c2cc3c(-c4ccncc4)ncnc3s2)cn1
2. O=S(=O)(Nc1cc(-c2cc3c(-c4ccncc4)ncnc3s2)cnc1Cl)c1ccc(Cl)s1
3. Cc1ncc(-c2cc3c(-c4ccncc4)ncnc3s2)cc1NS(=O)(=O)c1ccc(F)cc1F

1. 3490
2. 0.15
3. 1.7

---

Assay: Apparent permeability across apical to basolateral side in human Caco2 cells at 10 uM after 1.5 hrs by LC/MS/MS analysis
Assay type: ADME, cell-based
Details: Caco-2
Value type: Papp A→B at 1.5 h, 10 µM (×10⁻⁶ cm/s)
One number for each entry, in ×10⁻⁶ cm/s.

O=S(=O)(Nc1cc(-c2cc3c(-c4ccncc4)ncnc3s2)cnc1Cl)c1ccc(F)cc1F = 4.8

So what does the record say about Papp A→B at 1.5 h, 10 µM for COc1ncc(-c2cc3c(-c4ccncc4)ncnc3s2)cc1NS(=O)(=O)c1ccc(F)cc1F ?
5.6

---

Species: Homo sapiens
Experiment: Selectivity ratio of IC50 for mTOR (unknown origin) to IC50 for PI3Kalpha (unknown origin)
Exercise: for every item that follows, state its recorded Ratio IC50.
Numbers only.

Kindly give each listed record's Ratio IC50.
1. COc1ncc(-c2cc3c(-c4ccncc4)ncnc3s2)cc1NS(=O)(=O)c1ccc(F)cc1F
2. COc1ncc(-c2ccc3nncc(-c4ccncc4)c3c2)cc1NS(=O)(=O)c1ccc(F)cc1F
3. Cc1ncc(-c2cc3c(-c4ccncc4)ncnc3s2)cc1NS(=O)(=O)c1ccc(F)cc1F

1: 105; 2: 80; 3: 203

---

Exercise: for every item that follows, state its recorded IC50.
Molecular target: Phosphatidylinositol 4,5-bisphosphate 3-kinase catalytic subunit alpha isoform (Homo sapiens, UniProt P42336)
Test: Inhibition of PI3Kalpha (unknown origin) using PIP2/PS as substrate after 1 hr by luciferase-based luminescence assay
One number for each entry, in nM.

For orientation, consider the following solved cases.
COc1ncc(-c2cc3c(-c4ccncc4)ncnc3s2)cc1NS(=O)(=O)c1ccc(F)cc1F = 2.07
COc1ncc(-c2ccc3nc(N)nc(-c4ccncc4)c3c2)cc1NS(=O)(=O)c1ccc(F)cc1F = 0.07
COc1ncc(-c2cc3c(-c4ccncc4)ccnc3cn2)cc1NS(=O)(=O)c1ccc(F)cc1F = 1.02
COc1ncc(-c2cnc3ncnc(-c4ccncc4)c3c2)cc1NS(=O)(=O)c1ccc(F)cc1F = 51.7
COc1ncc(-c2sc3ncnc(-c4ccncc4)c3c2C)cc1NS(=O)(=O)c1ccc(F)cc1F = 72.3

Kindly give each listed record's IC50.
1. COc1ncc(-c2ccc3nncc(-c4ccncc4)c3c2)cc1NS(=O)(=O)c1ccc(F)cc1F
2. COc1ncc(-c2ccc3ncnc(-c4ccncc4)c3c2)cc1NS(=O)(=O)c1ccc(F)cc1F
3. O=S(=O)(Nc1cc(-c2cc3c(-c4ccncc4)ncnc3s2)cnc1Cl)c1ccc(F)cc1
4. O=S(=O)(Nc1cc(-c2cc3c(-c4ccncc4)ncnc3s2)cnc1Cl)c1ccc(F)cc1F
5. COc1ncc(-c2cc3c(-c4ccncc4)ncnc3s2)cc1NS(C)(=O)=O
6. COc1ncc(-c2ccc3nccc(-c4ccncc4)c3c2)cc1NS(=O)(=O)c1ccc(F)cc1F
7. COc1ncc(-c2cnc3nccc(-c4ccncc4)c3c2)cc1NS(=O)(=O)c1ccc(F)cc1F

1. 0.27
2. 0.095
3. 0.3
4. 0.23
5. 43.1
6. 0.1
7. 34.7

Kindly give each listed record's IC50.
1. COc1ncc(-c2cc3c(-c4ccncc4)ncnc3s2)cc1NS(=O)(=O)c1ccc(C#N)cc1
2. COc1ncc(-c2cc3c(-c4ccncc4)ncnc3s2)cc1NS(=O)(=O)c1ccc(C(F)(F)F)cc1

1. 3.6
2. 17

---

Species: Homo sapiens
Experiment: Selectivity ratio of IC50 for mTOR (unknown origin) to IC50 for PI3Kalpha (unknown origin)
API: label(entry) gives satisfied if the entry's Ratio IC50 is strictly smaller than 100; on equality or larger values it gives not satisfied.

Please review the following examples before continuing.
O=S(=O)(Nc1cc(-c2cc3c(-c4ccncc4)ncnc3s2)cnc1Cl)c1ccc(F)cc1 = not satisfied
COc1ncc(-c2cnc3ncnc(-c4ccncc4)c3c2)cc1NS(=O)(=O)c1ccc(F)cc1F = satisfied
COc1ncc(-c2cnc3nc(N)nc(-c4ccncc4)c3c2)cc1NS(=O)(=O)c1ccc(F)cc1F = satisfied
O=S(=O)(Nc1cc(-c2cc3c(-c4ccncc4)ncnc3s2)cnc1Cl)c1ccc(Cl)s1 = not satisfied
COc1ncc(-c2cnc3nccc(-c4ccncc4)c3c2)cc1NS(=O)(=O)c1ccc(F)cc1F = satisfied

A record lists O=S(=O)(Nc1cc(-c2cc3c(-c4ccncc4)ncnc3s2)cnc1Cl)c1ccc(F)cc1F . Is its Ratio IC50 below 100?
not satisfied

A record lists COc1ncc(-c2cc3c(-c4ccncc4)ccnc3cn2)cc1NS(=O)(=O)c1ccc(F)cc1F . Is its Ratio IC50 below 100?
satisfied

The origin of these recorded values is ChEMBL document CHEMBL3576869.
